Listing of entries alongside the reported remaining activity at 0.05 µM.
biological target: recombinant human seprase (rhFAP) (Homo sapiens, UniProt Q12884); assay: Inhibition of enzymatic activity of recombinant human seprase on Z-Gly-Pro-AMC (fluorescence); assay type: biochemical; conditions: inhibitor 0.05 μM; initial velocity normalized to control without test compound; 50 μM Z-Gly-Pro-AMC; read-out: Percent of Control
Sequence (Q12884 26-760 limits assumed): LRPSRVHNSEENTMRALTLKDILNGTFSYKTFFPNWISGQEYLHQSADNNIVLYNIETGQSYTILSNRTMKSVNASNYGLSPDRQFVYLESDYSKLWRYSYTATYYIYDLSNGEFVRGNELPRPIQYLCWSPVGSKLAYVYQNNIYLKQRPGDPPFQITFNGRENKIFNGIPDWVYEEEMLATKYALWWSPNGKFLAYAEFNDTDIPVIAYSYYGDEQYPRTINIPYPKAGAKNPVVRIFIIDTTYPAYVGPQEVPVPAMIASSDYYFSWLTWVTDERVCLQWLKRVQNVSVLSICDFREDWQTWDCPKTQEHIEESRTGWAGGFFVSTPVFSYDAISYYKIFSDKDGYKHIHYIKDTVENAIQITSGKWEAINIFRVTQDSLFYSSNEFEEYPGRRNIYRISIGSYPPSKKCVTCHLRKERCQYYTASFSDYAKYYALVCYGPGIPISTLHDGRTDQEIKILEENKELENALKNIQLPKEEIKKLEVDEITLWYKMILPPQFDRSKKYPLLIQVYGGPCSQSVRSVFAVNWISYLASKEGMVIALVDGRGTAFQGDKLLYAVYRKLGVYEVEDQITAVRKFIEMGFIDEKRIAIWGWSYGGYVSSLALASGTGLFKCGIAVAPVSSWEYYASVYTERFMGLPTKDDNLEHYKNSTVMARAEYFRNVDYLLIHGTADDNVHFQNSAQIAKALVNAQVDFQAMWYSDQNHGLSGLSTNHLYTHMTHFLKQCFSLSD
Field format: number, assumed %, no unit text.

Below, each entry is followed by its recorded remaining activity at 0.05 µM result.
Compound	Subject of test	Unit of measurement	remaining activity at 0.05 µM
O=C(NCC(=O)N1CCCC1B(O)O)c1ccc(I)cc1 (stereo not shown)	recombinant human seprase (rhFAP) (Homo sapiens, UniProt Q12884)	%	0
O=C(NCC(=O)N1CCCC1B(O)O)OCc1ccccc1 (stereo not drawn) [Compound 1051, Cbz-Gly-boroproline, reference compound]	recombinant human seprase (rhFAP) (Homo sapiens, UniProt Q12884)	%	46
O=C(NCC(=O)N1CCCC1B(O)O)c1cccc(I)c1 (stereo not shown)	recombinant human seprase (rhFAP) (Homo sapiens, UniProt Q12884)	%	0

Continue with the next compound.
QUERY: Report remaining activity at 0.05 µM, nothing else, for this compound: O=C(NCC(=O)N1CCCC1B(O)O)c1ccccc1I (stereo not shown)
RESULT: 0
